target_desc: GABA-A receptor; alpha-1/beta-2/gamma-2 (Rattus norvegicus, UniProt P18508+P62813+P63138)
Sequence (P18508 whole entry): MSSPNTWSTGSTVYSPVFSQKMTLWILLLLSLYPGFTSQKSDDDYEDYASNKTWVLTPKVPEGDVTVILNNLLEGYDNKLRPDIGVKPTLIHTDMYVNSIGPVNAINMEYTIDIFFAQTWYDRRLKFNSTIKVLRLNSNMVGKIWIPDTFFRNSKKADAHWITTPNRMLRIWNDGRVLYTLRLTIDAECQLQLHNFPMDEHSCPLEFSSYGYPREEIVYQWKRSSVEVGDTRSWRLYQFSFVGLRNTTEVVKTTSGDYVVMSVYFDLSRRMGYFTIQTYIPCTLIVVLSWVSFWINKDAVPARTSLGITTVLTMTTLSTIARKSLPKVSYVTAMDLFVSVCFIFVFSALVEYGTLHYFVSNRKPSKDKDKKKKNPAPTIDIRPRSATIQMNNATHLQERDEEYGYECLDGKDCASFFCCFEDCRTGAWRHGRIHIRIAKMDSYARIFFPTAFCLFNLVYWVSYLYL
Sequence (P62813 whole entry): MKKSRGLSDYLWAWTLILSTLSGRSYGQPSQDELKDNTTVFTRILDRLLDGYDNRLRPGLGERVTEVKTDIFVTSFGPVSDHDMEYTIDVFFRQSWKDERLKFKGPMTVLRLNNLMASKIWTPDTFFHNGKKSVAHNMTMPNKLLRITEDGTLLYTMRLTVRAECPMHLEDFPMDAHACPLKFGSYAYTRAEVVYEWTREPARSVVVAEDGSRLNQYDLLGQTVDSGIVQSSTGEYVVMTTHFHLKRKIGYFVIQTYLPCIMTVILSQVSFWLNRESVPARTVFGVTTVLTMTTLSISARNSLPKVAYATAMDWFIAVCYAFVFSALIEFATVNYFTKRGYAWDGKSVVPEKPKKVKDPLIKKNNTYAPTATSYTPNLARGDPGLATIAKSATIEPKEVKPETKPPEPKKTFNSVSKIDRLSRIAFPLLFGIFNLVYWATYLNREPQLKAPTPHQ
Sequence (P63138 whole entry): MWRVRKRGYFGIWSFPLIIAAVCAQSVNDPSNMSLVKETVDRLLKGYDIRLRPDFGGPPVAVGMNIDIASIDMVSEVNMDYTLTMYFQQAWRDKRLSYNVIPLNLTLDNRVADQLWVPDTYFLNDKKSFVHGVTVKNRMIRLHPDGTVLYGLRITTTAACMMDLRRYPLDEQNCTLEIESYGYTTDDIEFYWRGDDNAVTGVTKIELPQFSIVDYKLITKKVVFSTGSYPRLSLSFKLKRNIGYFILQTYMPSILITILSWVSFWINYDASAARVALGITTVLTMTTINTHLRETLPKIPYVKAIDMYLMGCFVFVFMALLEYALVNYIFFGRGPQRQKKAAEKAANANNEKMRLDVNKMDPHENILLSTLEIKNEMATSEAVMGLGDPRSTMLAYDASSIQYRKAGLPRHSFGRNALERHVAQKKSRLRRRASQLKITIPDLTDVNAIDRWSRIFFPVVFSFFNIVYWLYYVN
method_notes: Displacement of [3H]flumazenil from rat GABA-Aalpha1 receptor plus beta-2-gamma-2 in HEK293 cells
result_type: pKi
Would you please state pKi, meaning minus log10 of the concentration in mol/L, as a bare number?

# test_smiles, target_desc, pKi
records = [
    ("O=C(NCc1ccco1)C(=O)c1c[nH]c2ccc([N+](=O)[O-])cc12", "GABA-A receptor; alpha-1/beta-2/gamma-2 (Rattus norvegicus, UniProt P18508+P62813+P63138)", 7.70),
    ("O=C(NCc1ccc[nH]1)C(=O)c1c[nH]c2ccc([N+](=O)[O-])cc12", "GABA-A receptor; alpha-1/beta-2/gamma-2 (Rattus norvegicus, UniProt P18508+P62813+P63138)", 7.13),
]

Reported pKi for O=C(NCc1cc[nH]c1)C(=O)c1c[nH]c2ccccc12 : what is it?
6.57

Same question for O=C(NCc1cc[nH]c1)C(=O)c1c[nH]c2ccc([N+](=O)[O-])cc12 please.
8.04

Same question for O=C(NCc1ccoc1)C(=O)c1c[nH]c2ccc([N+](=O)[O-])cc12 please.
7.25

Same question for O=C(NCc1ccc[nH]1)C(=O)c1c[nH]c2ccccc12 please.
6.57

###

target_desc: GABA-A receptor; anion channel
method_notes: Displacement of [3H]flumazenil from GABA-A receptor in bovine brain membranes
Measured pKi by item
Would you please state pKi, meaning minus log10 of the concentration in mol/L, as a bare number?

# test_smiles, result_type, recorded_value
data = [
    ("O=C(NCc1ccccn1)C(=O)c1c[nH]c2ccccc12", "pKi", 5.22),
    ("O=C(NCc1ncc[nH]1)C(=O)c1c[nH]c2ccccc12", "pKi", 5.76),
    ("O=C(NCc1ccsc1)C(=O)c1c[nH]c2ccccc12", "pKi", 6.67),
]

Could you now consider this next compound?
Reported pKi for O=C(NCc1ccncc1)C(=O)c1c[nH]c2ccccc12 : what is it?
6.37

###

Measured pKi by item
target_desc: GABA-A receptor; anion channel
method_notes: Displacement of [3H]flumazenil from GABA-A receptor in bovine brain membranes
Would you please state pKi, meaning minus log10 of the concentration in mol/L, as a bare number?

Worked set:
# test_smiles, result_type, recorded_value
data = [
    ("O=C(NCc1cccnc1)C(=O)c1c[nH]c2ccccc12", "pKi", 6.98),
    ("O=C(NCc1cccs1)C(=O)c1c[nH]c2ccc([N+](=O)[O-])cc12", "pKi", 6.89),
    ("Cn1cccc1CNC(=O)C(=O)c1c[nH]c2ccc([N+](=O)[O-])cc12", "pKi", 6.87),
]

Could you now consider this next compound?
Reported pKi for O=C(NCc1ccsc1)C(=O)c1c[nH]c2ccc([N+](=O)[O-])cc12 : what is it?
6.83
